Target: HMG-CoA reductase (Homo sapiens)
Construct: The cell proteins were used as enzyme source; endogenous in cells; host or cells: HepG2
Sequence (P04035 1-888): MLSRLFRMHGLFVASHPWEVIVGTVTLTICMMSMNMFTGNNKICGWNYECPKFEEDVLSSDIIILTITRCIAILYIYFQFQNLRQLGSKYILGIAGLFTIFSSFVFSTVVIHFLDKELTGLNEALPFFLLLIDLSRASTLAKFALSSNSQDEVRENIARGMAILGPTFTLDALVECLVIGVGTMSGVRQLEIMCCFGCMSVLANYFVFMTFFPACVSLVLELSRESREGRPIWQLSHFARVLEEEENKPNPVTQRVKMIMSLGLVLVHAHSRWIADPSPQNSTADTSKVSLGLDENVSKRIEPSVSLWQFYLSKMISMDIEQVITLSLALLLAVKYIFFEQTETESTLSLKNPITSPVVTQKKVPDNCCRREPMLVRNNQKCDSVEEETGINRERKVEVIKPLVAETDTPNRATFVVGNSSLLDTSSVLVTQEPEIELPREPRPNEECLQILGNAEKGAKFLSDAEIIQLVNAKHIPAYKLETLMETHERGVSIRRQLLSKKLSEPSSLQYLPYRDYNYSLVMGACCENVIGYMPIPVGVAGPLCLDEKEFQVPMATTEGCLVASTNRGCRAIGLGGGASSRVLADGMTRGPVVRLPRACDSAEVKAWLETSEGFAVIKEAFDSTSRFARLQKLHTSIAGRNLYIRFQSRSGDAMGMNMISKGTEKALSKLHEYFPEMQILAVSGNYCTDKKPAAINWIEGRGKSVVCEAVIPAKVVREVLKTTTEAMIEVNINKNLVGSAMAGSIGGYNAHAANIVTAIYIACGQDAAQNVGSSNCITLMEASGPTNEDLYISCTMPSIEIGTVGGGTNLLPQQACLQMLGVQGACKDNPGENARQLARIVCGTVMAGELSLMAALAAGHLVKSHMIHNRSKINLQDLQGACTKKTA
Experiment: HMGCoA reductase activity assay, HepG2 cells treated with inhibitors, cell proteins used as enzyme source
Format: cell-based
Details: HepG2 cells treated with synthetic peptides or statins at 10 μM; vs untreated cells
Classify as follows. Reported % of inhibition on HMG-CoA reductase activity, Aqueous medium greater than or equal to 3%: YES. Reported % of inhibition on HMG-CoA reductase activity, Aqueous medium below: NO.

Inquiry: I'd appreciate it if you could say whether PAPFVKLCTCQGIDYDNSFFFG (Buthus martensii Karsch) [Peptide 3] has % of inhibition on HMG-CoA reductase activity, Aqueous medium at least equal to 3%.
Reply text: YES

Inquiry: Quick check, % of inhibition on HMG-CoA reductase activity, Aqueous medium >= 3%? LSPWNEGDTYYGCQR (Buthus martensii Karsch) [Peptide 7]
Reply text: NO

Inquiry: Reported % of inhibition on HMG-CoA reductase activity, Aqueous medium at or above 3%? SPWNEGD (Buthus martensii Karsch) [Peptide 8]
Reply text: NO

Inquiry: Form field: % of inhibition on HMG-CoA reductase activity, Aqueous medium at least 3%? Entry: GCQRQTDEFCNKICKLHLASG (Buthus martensii Karsch) [Peptide 5]
Reply text: NO

Inquiry: Given the entry QGIDYDNSFFFGALEKQCPK (Buthus martensii Karsch) [Peptide 4] , answer whether its % of inhibition on HMG-CoA reductase activity, Aqueous medium meets or surpasses 3%.
Reply text: YES

Inquiry: Would you say QPAPFVKLCTCQGI (Buthus martensii Karsch) [Peptide 1] shows % of inhibition on HMG-CoA reductase activity, Aqueous medium at minimum 3%?
Reply text: YES

Inquiry: Hello, I need to know if KLHLASGGSCQQPAPFVKL (Buthus martensii Karsch) [Peptide 2] has measured % of inhibition on HMG-CoA reductase activity, Aqueous medium not below 3%. Thanks!
Reply text: YES

Inquiry: Dear colleague, could you confirm whether DSLSPWNEGDTYYG (Buthus martensii Karsch) [Peptide 6] has % of inhibition on HMG-CoA reductase activity, Aqueous medium at or above 3%?
Reply text: YES
